Hello, the source for this data is PubChem BioAssay (NCI), in case you need it.

- System: NCI-H522 lung
- Assay Info: NCI tumour cell line growth inhibition, 48 h; in the data active = GI50 below about 0.43 µM; inactive = the rest
The reply should name one outcome from active, inactive

Task: Per the records of this test, what outcome belongs to C=C1CC[C@@H]2[C@](C)(COC(C)=O)[C@H](OC(C)=O)CC[C@@]2(C)[C@@H]1CC(Nc1ccc(S(=O)(=O)Nc2nccs2)cc1)C1=CCOC1=O (stereo partly specified) ?
Result: inactive

Task: In this assay, the call recorded for `COc1cc(/C=C/[N+](=O)[O-])cc(OC)c1OC` was what?
Result: inactive

Task: I would be grateful if you could indicate the recorded call for `COc1cc(OC)cc(-c2n/c(=C\c3c(O)[nH]c4ccc(Cl)cc34)cc3c2=Nc2ccccc2-3)c1` .
Result: inactive

Task: Hi, do you know how `CCC[CH2][Sn]([CH2]CCC)([O]C(=O)/C=C/c1ccccc1F)[O]C(=O)/C=C/c1ccccc1F` came out in this test?
Result: active

Task: Test call for this compound, please: `NC(=O)c1cccc(-c2cc(C(N)=O)ccc2Cl)c1`
Result: inactive

Task: Tell me the assay call for CCN1C(=O)N(CC)C2C1NN=c1s/c(=C\c3ccc[nH]3)c(=O)n12 (stereo unspecified) please.
Result: active
